Tested on: SR leukemia
protocol notes: NCI tumour cell line growth inhibition, 48 h; in the data active = GI50 below about 0.43 µM; inactive = the rest
Respond with a class label; see active, inactive

Which outcome was assigned to `Cc1cc(Cl)ccc1NC(=O)NC(C)(C)COC(=O)Nc1cccc(Cl)c1` in this test?
inactive

Please let me know the test result on file for `CC1(C)N=C(N)N=C(N)N1c1ccc(OCCCCNC(=O)c2ccc(S(=O)(=O)F)cc2)c(Cl)c1` .
inactive

Dear colleague, could you share the recorded outcome for `C[C@H]1CC2=CC(=O)CC[C@]2(C)[C@H]2CC[C@@]3(C)[C@@H](CC[C@]3(C)O)[C@H]12` when you have a moment?
inactive

Recorded call for `O=C(O)c1ccc2cccnc2c1O` ?
inactive

Query: recorded result category for CC(C)=CCC/C(C)=C/[C@H]1OC(=O)CC12C[C@H](O)C=CC2=O (some centres not stated) in this test
active

Just curious, what result did `CCN(CC)CCOc1nc2cc(OC)c(OC)cc2c2c1-c1ccc(OC)cc1C2=O` get here?
inactive

Hello, I am checking results. What call was entered for `O=C(c1ccccc1)c1ccccc1C(=O)c1ccccc1` ?
inactive

What was the test verdict on `COc1cc(/C=C/c2cc(/C=C/c3ccc(O)c(OC)c3)[nH]c(=O)n2)ccc1O` ?
inactive

State the result this test recorded for `Cc1cc(S(=O)(=O)Nc2nc3cc(-c4ccsc4)sc3c(=O)n2N)c(S)cc1Cl` .
inactive

Just curious, what result did C#CCOc1cccc(Nc2ncc3ncn(C4CCN(C(=O)CCl)C4)c3n2)c1 (configuration not stated) get here?
inactive

What did the test return for Cc1nc2sc(C(=O)Nc3cccc(Cl)c3C)c(N)c2cc1C(C)O (configuration not stated) ?
active

Hello, I am checking results. What call was entered for `Cn1c(O)c(N=NC(N)=S)c2ccccc21` ?
inactive

* * *

Tested on: SW-620 colon
protocol notes: NCI tumour cell line growth inhibition, 48 h
observation type: GI50

What does the data say about its GI50? Entry: N#CC1CCc2c(c(-c3cn[nH]c3C(F)(F)F)nc3c(F)cc4[nH]ncc4c23)C1 (centres undefined)
3.47 µM

Look up GI50 for this molecule: `N#Cc1ccc2c(c1)C(=O)c1c-2n(CCCN=[N+]=[N-])c(=O)c2cc([N+](=O)[O-])ccc12`
3.5 µM

Fill in: GI50 of `O=C(O)c1ccc2cccnc2c1O` is ___
2 µM

State the recorded GI50 for this entry: CCC(=O)OC1=CN2C(=NC(c3ccc(N)cc3)=CC2c2cc(OC)c(OC)c(OC)c2)S1 (centres undefined)
2.89 µM

* * *

System: HCT-15 colon
protocol notes: NCI tumour cell line growth inhibition, 48 h
observation type: TGI

Value lookup for TGI; key = `Cn1c(O)c(N=NC(N)=S)c2ccccc21`
> 100 µM

Item under review: CCOC(=O)c1c(-c2ccc(OC)c(O)c2)c(C#N)c(=S)n(C2OC(CO)C(O)C(O)C2O)c1-c1ccccc1 (configuration not stated) . Reported TGI?
> 100 µM

Fill in the blank: the reported TGI of `Cc1cccc2c1C(=O)[C@@](C)([C@]1(C)Nc3cccc(C)c3C1=O)N2` is ____.
> 100 µM

GET /values?readout=TGI&item= `NC(=S)N/N=C\c1nccc2c(C(F)(F)C(F)(F)C(F)(F)F)cccc12`
> 100 µM

Quick check: TGI of `C[n+]1c(-c2ccc(/C=N/Nc3ccnc(N/N=C/c4ccc(-c5cn6ccccc6[n+]5C)cc4)n3)cc2)cn2ccccc21` ?
> 100 µM

What does the data say about its TGI? Entry: CCC(=O)OC1=CN2C(=NC(c3ccc(N)cc3)=CC2c2cc(OC)c(OC)c(OC)c2)S1 (configuration not stated)
29.6 µM

Any idea what its TGI is? The molecule is `Cc1ccc2cnc(N)c(C#Cc3cncc(C(=O)Nc4ccc(CN5CCN(C)CC5)c(C(F)(F)F)c4)c3)c2c1`
0.731 µM

* * *

Tested on: LXFL 529 NSCLC
protocol notes: NCI tumour cell line growth inhibition, 48 h
observation type: TGI

So what's the measured TGI for this one? O=C1C2=C(c3ccccc31)C(c1ccc(F)cc1)N1C(=O)CCSC1=N2 (centres undefined)
> 100 µM

// query TGI value for entry COc1ccc(N2C(=O)C(N3C(=O)C=CC3=O)C2C=O)cc1 (centres undefined)
> 100 µM

Form field: reported TGI of `COC(=O)C1=C(c2cc(OC)c(OC)c(OC)c2)O[C@H](c2ccc3c(c2)OCO3)[C@H]1COC(C)=O`
69.2 µM

Given COC(=O)/C(=N/O)C(C(=O)OC)C(=O)C(=O)Nc1c(Cl)cc(C)cc1S(=O)(=O)O (centres undefined) , state its recorded TGI.
> 100 µM

* * *

System: TK-10 renal
protocol notes: NCI tumour cell line growth inhibition, 48 h
Provide the reported TGI of each item.

Give the measured TGI of `COc1ccc(/C=C/c2cnc3ccccc3n2)cc1OC` .
> 100 µM

So what's the measured TGI for this one? `COc1cc(CNC(=O)CCSc2nc3ccccc3c(=O)n2Cc2cc(OC)c(OC)c(OC)c2)cc(OC)c1OC`
44.4 µM

Dear colleague, I am looking for the recorded TGI of the following compound: COc1ccc(NS(=O)c2cccc(C)c2)cc1 (configuration not stated)
> 100 µM

Consider the compound shown here: C[C@@H]1OCC(O)C([C@H]2OC(c3ccccc3)=N[C@H]2CO)O1 (some centres not stated) What is its recorded TGI?
> 100 µM

// TGI lookup, key: `N#Cc1ncc(N2C(=O)C3(CCC3)N(c3ccc(OC4CCNCC4)nc3)C2=S)cc1C(F)(F)F`
39.1 µM

Endpoint output: TGI of `O=C(NCc1ccccc1)c1c(O)c2ccccc2[nH]c1=O` . Value?
> 100 µM

What TGI value was documented for this compound, O=C1OC(c2ccccc2)=N/C1=C/N1CCCC1C(=O)O (configuration not stated) ?
> 100 µM

If you can, please state the reported TGI value of `COC(=O)/C=C\C(C#N)(C#N)N=Cc1ccsc1` .
5.96 µM

Fill blank: measured TGI of the compound `O=C1C(=Cc2ccccc2[N+](=O)[O-])N=C(c2ccccc2)N1n1c(-c2ccccc2)nc2ccccc2c1=O` is ____.
> 100 µM

Give the measured TGI of O=S1(=O)CC(Br)C(Br)C1 (configuration not stated) .
11.9 µM

Value lookup for TGI; key = `C=C1C(=O)O[C@H]2[C@H]1CC/C(COC(=O)/C=C/c1c[nH]c3ccccc13)=C\CC[C@@]1(C)O[C@@H]21`
0.709 µM

For the compound `CS(=O)(=O)Nc1cc(-c2ccc3ncnc(Nc4cccc(Cl)c4F)c3c2)cnc1Cl` , what TGI is on record?
8.73 µM

Fill blank: measured TGI of the compound `Cc1ccc(/C=C2\CN(Cc3cn(CCNc4ccnc5cc(Cl)ccc45)nn3)C/C(=C\c3ccc(C)cc3)C2=O)cc1` is ____.
3.36 µM

What TGI value was documented for this compound, O=C1OC2C=CC1C1(CCOC1=O)C2 (configuration not stated) ?
> 100 µM

Quick one: TGI for `COC1=CC(=O)c2c(cc(COP(=O)(N(C)CCBr)N(C)CCBr)n2C)C1=O` ?
2.01 µM

If you can, please state the reported TGI value of CCOC(=O)CCC(C(=O)OCC)n1nnc2cc(Nc3c(C)[n+]([O-])c4ccc(Cl)cc4[n+]3[O-])ccc21 (configuration not stated) .
> 100 µM

Which TGI value is on record for `S=C(Nc1ccc2c(c1)Cc1ccccc1-2)Nc1ccc2c(c1)Cc1ccccc1-2` ?
> 100 µM

Would you kindly share the measured TGI for CN/N=C(\C(=O)Nc1ccc([N+](=O)[O-])cc1[N+](=O)[O-])C1NC(=O)NC1=O (configuration not stated) ?
> 100 µM

Consider the compound shown here: `CC(C)c1nccn1Cc1ccc(Cl)cc1Cl` What is its recorded TGI?
> 100 µM

Give its TGI value. Item: `CCOC(=O)/C(C#N)=C(N)/C(=N\Nc1cccc(C(F)(F)F)c1)C(=O)OCC`
> 100 µM

Could you share which TGI value was measured for `N#Cc1c(C#N)c(-c2ccccc2)n(/N=C\c2ccccc2)c1N` ?
> 100 µM

What value of TGI has been reported for the following compound? Cc1cc(O)c2c(c1)C(=O)C(c1c(C)cc3c(c1O)C(=O)C1OC1C3=O)=CC2=O (configuration not stated)
3.36 µM

Looking for the measured TGI of COC(=O)C12C3C4C1C1C2C3C41C(=O)N(C(C)C)C(C)C (configuration not stated) , can you help?
> 100 µM

# get_value(readout='TGI', item= CC1OC=CC(=O)C1O (configuration not stated) )
> 100 µM

Please report the recorded TGI for `c1ccc(CNc2ncnc3n[nH]nc23)cc1` .
> 100 µM

Sample N#CC1CCc2c(c(-c3cn[nH]c3C(F)(F)F)nc3c(F)cc4[nH]ncc4c23)C1 (configuration not stated) — what was its TGI?
57.9 µM

Using the record for `Cc1ccc(C)c2c1CCc1cc3ccccc3nc1-2` , report its TGI.
> 100 µM
